test-target: α1A Human Adrenergic Receptor (Homo sapiens, UniProt P25100)
Construct: The entire coding region of α1A (1719 bp); expressed in transfected cells
Sequence (P25100 whole entry): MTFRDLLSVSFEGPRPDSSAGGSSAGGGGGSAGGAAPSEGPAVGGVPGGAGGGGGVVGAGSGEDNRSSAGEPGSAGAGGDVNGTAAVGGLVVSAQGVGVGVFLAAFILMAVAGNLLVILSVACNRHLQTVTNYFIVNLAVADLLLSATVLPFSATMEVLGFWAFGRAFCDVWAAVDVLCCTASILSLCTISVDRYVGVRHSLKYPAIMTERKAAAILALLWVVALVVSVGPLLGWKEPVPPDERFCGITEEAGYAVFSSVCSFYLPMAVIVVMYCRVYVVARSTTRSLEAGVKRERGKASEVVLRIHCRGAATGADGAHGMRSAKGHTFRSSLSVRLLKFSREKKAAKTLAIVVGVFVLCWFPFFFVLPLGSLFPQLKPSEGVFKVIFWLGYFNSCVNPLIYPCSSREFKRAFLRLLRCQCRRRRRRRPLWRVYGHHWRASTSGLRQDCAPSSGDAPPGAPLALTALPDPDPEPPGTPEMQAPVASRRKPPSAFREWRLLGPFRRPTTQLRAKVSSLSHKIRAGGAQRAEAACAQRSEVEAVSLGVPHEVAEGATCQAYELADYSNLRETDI
measurement-description: Radioligand binding, [3H]prazosin, cloned human α1A adrenergic receptor
condition-context: pKi alpha-1 1a, [3H]prazosin, cloned human α1A receptor, LM(tk−) cell membranes
observable: pKi
// pKi here means minus log10 of the molar concentration (mol/L)

Sample answers from the record:
1) CC(C)C1=C(C(N)=O)C(c2ccc([N+](=O)[O-])cc2)C(C(=O)NCCCN2CCC(c3ccccc3)(c3ccccc3)CC2)=C(C(C)C)N1 (stereo not drawn) : 6.45
2) CCNC(=O)C1=C(C)NC(C)=C(C(=O)NCCCN2CCC(c3ccccc3)(c3ccccc3)CC2)C1c1ccc([N+](=O)[O-])cc1 (stereo not drawn) : 5.83

Q: Requested read-out pKi, target or system α1A Human Adrenergic Receptor (Homo sapiens, UniProt P25100), entry CC1=C(C(=O)NCCCN2CCC(c3ccccc3)(c3ccccc3)CC2)C(c2ccc([N+](=O)[O-])cc2)C(C(=O)OCCC#N)=C(C)N1 (stereo not drawn)
Result: 6.60
